Where do these numbers come from? They come from ChEMBL document CHEMBL3596165.

Parameter IC50: see the listing below.
Tested on: T47D
Run description: Antiproliferative activity against human T47D cells after 24 hrs by BrdUrd incorporation assay
Assay type: functional, cell-based
Please append the unit to your numeric answer.

These recorded examples may help you get a feel for the data.
O=c1c(-c2cccs2)nnc2n1CCN2c1ccc(Cl)cc1; 80 µM
Cc1ccccc1N1CCn2c1nnc(-c1cccs1)c2=O; 100 µM

Lab note: next compound to report on.
Look up IC50 for this compound: "O=c1c(-c2cccs2)nnc2n1CCN2c1ccccc1Cl"
80 µM
